TEST METHOD NOTES: Mouse oral pharmacokinetic study
Format: in vivo, male BALB/c mice
CONDITION LABEL: male, BALB/c, mouse; plasma; 40 mg/kg PO single dose
MEASURED QUANTITY: AUC(0-inf) (µg·h/mL)
Numbers only, in µg·h/mL.

Quick check: AUC(0-inf) of Fc1cccc(COc2ccc(Nc3ncnc4ccc(-c5cccc(N6CCOCC6)c5)cc34)cc2Cl)c1 [Compound 23a] ?
2

* * *

Provide the reported pEC50 of each item.
Tested on: L. major promastigote
TEST METHOD NOTES: L. major promastigote assay
Format: cell-based
Answers are plain numbers, as −log10 of the molar value.

Solved cases (3 shown):
CC(C)(C)OC(=O)N1CCN(S(=O)(=O)c2ccc(-c3ccc4ncnc(Nc5ccc(OCc6cccc(F)c6)c(Cl)c5)c4c3)cc2)CC1 [NEU-624]: 4.85
Cc1cc(-c2ccc3ncnc(Nc4ccc(OCc5cccc(F)c5)c(Cl)c4)c3c2)cnc1N1CCOCC1 [NEU-632]: 5.44
Fc1cccc(COc2ccc(Nc3ncnc4ccc(-c5cccc(CN6CCOCC6)c5)cc34)cc2Cl)c1 [Compound 23c]: 5.48

Now take the following compound into account.
// map CN1CCN(S(=O)(=O)c2ccc(-c3ccc4ncnc(Nc5ccc(F)cc5)c4c3)cc2)CC1 [NEU-768] to recorded pEC50 (system: L. major promastigote)
4.92
